// hERG current change (%, negative = inhibition) at 10uM lookup, one value per entry
# test-target: human ether-à-go-go-related gene (hERG) potassium channel (human, UniProt Q12809)
# Sequence (Q12809 whole entry, looked up): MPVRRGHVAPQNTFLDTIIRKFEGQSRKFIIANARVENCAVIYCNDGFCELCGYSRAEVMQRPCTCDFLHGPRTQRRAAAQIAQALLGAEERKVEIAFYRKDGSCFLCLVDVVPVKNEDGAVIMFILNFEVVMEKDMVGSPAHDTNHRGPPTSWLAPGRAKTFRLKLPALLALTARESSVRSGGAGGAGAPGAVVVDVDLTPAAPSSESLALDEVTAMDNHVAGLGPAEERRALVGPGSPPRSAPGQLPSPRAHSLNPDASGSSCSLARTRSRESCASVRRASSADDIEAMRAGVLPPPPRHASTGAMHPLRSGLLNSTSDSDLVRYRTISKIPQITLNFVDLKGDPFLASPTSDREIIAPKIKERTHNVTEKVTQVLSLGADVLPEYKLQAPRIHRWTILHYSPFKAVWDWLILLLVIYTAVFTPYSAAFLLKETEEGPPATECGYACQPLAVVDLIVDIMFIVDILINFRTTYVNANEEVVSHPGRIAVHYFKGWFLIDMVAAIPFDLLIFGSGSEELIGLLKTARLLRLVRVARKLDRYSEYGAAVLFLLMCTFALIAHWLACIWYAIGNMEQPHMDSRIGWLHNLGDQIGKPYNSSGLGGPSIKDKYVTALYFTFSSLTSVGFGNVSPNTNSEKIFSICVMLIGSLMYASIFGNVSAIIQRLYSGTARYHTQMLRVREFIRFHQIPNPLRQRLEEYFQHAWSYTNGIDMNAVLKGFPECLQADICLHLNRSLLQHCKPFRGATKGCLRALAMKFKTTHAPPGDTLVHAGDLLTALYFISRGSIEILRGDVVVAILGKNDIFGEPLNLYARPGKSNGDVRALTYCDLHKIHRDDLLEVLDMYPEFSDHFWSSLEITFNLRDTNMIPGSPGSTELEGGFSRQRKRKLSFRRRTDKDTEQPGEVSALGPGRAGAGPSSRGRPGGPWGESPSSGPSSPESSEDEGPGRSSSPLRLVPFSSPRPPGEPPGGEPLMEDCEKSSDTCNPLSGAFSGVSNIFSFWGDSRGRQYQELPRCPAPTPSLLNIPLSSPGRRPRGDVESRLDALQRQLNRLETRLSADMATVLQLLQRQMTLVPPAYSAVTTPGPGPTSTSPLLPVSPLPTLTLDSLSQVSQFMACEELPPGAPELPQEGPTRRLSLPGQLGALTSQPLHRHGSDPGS
# test-method-notes: primary screen, population patch clamp on CHO cells stably expressing hERG; higher = less effect of the substance
# Description: Briefly, Chinese hamster ovary (CHO) cells stably expressing the hERG channel were dislodged from tissue culture flasks and dispensed into PPC plates. […] During the recording, background leak currents were estimated by a 100 ms step to -80 mV from an initial holding potential of -70 mV and subtracted from the subsequent current measurement. The campaign was conducted in two phases using slight differences in recording protocol. […]
Out of some 310,000 compounds screened, about 14,000 (4.5%) showed an effect of 50% or more. Effects have a minus sign here. The full list was thinned out, with strong results kept by preference.
Numbers only; they are read as %.

Below are worked cases with known answers.
1) CCCCN(C)Cc1c(C)[nH]c2ccccc2c1=O    -2.26
2) Cc1ccc(S(=O)(=O)NCCSc2nnnn2C)cc1    -2.53
3) C/C(=N\NC(=S)Nc1cc(S(=O)(=O)N2CCOCC2)ccc1Cl)c1ccc(N2CCOCC2)cc1    6.22
4) O=C(C1=NN(c2ccccc2)C2C(=O)N(c3cccc(Cl)c3)C(=O)C12)c1ccccc1 (stereo not shown)    1.55
5) Cc1onc(-c2ccccc2)c1C(=O)Nc1ccc(S(=O)(=O)N2CCOCC2)cc1    -29.6
6) COc1ccccc1C(=O)Nc1cc(C)on1    7.07
7) O=C(NN1CC(C(=O)OCc2ccccc2F)CC1=O)c1ccccc1 (stereo not shown)    -56.8
8) CCCCN(C)Cc1c(C)[nH]c2ccc(Cl)cc2c1=O    -55.3

Exercise: Tell me the measured hERG current change (%, negative = inhibition) at 10uM of Cc1ccc(S(=O)(=O)N(C)C)cc1NC(=O)CN1C(=O)NC(Cc2ccccc2)C1=O (stereo not shown) , please.
Solution: 8.61

Exercise: Can you handle COc1cc2c(cc1OC)C(C)N(C(=O)C(NC(=O)c1ccccc1)C(C)C)CC2 (stereo not shown) next?
Solution: 7.1

* * *

# test-target: human ether-à-go-go-related gene (hERG) potassium channel (human);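 also: peak tail current of the secondary pulse compared with the same well before compound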
# test-method-notes: primary screen, population patch clamp on CHO cells stably expressing hERG; higher = less effect of the substance
In all, about 310,000 compounds went through this assay and about 14,000 (4.5%) showed an effect of 50% or more. Effects have a minus sign here. The sample as a whole holds a higher share of strong results than the screen did.
Binary classification by hERG current change (%, negative = inhibition) at 10uM, with -30% as an inclusive lower bound for true; all other cases are false.

Reference set, count: 6
1) COc1ccc(S(=O)(=O)N2CCCCC2)cc1NC(=O)c1cccs1    true
2) COc1cc(/C=N/NC(=O)c2ccc(Cn3cc([N+](=O)[O-])cn3)o2)cc(Br)c1O    false
3) O=C(c1ccco1)N1CCN(c2ccc([N+](=O)[O-])cn2)CC1    false
4) CCOP(=O)(OCC)C(O)c1ccc(OC)c(OC)c1 (stereo not drawn)    true
5) CNC(=O)CC1C(=O)N(c2ccc(F)cc2)C(=S)N1NC(=O)c1ccc(Br)cc1 (stereo not drawn)    true
6) Cc1ccc(/C=N/NC(=O)c2ccc(Cn3cc([N+](=O)[O-])cn3)o2)cc1    false

Exercise: Textbook exercise: given the entry N#CC1(N2CCN(C(=O)c3ccccc3)CC2)CCCCC1 , state whether its hERG current change (%, negative = inhibition) at 10uM is greater than or equal to -30%.
Solution: true

Exercise: Okay, and O=C(N/N=C\c1ccc(F)cc1)c1ccc(Cn2cc(Br)c([N+](=O)[O-])n2)o1 ?
Solution: false

Exercise: Can you handle CCCCCOC(=O)C1=C(C)NC(=O)NC1c1ccc(OC)cc1 (stereo not drawn) next?
Solution: true

Exercise: Same read-out for O=[N+]([O-])c1ccc(Cl)c(NC(=S)N2CCCC2)c1 ?
Solution: true

Exercise: Also check COc1ccc(-c2nnc(SCC(=O)Nc3cc(C)on3)o2)cc1
Solution: true

Exercise: Request: COc1ccc(/C=N/NC(=O)c2ccc(Cn3cc([N+](=O)[O-])cn3)o2)cc1O
Solution: true

Exercise: Also, COc1ccc(C2=Nn3c(nnc3-c3ccccc3)SC2)cc1OC please.
Solution: true

Exercise: Another compound to check: COc1ccc(C2=Nn3c(nnc3-c3cccnc3)SC2)cc1OC
Solution: false

Exercise: // next record O=[N+]([O-])c1ccc2c(c1Nc1ccccc1Cl)=NC1(CCCCC1)N=2
Solution: true

Exercise: Consider next the compound CC(C)(C)N1CC(c2nc3ccccc3n2Cc2ccccc2)CC1=O (stereo not drawn) in the same way.
Solution: false

Exercise: CC(=O)c1ccc(N2CCN(C(=O)c3ccco3)CC2)c(F)c1 ?
Solution: true

Exercise: What about this compound? CC1(OC(=O)CCc2ccccc2)C(=O)C=C2C=C3CCCN3C=C2C1=O (stereo not drawn)
Solution: true

Exercise: Ok, now COc1cc(/C=N\NC(=O)c2ccc(Cn3cc(Br)c([N+](=O)[O-])n3)o2)cc(OC)c1O
Solution: true

Exercise: Here is the next compound: COc1ccc(C2=Nn3c(nnc3-c3ccncc3)SC2)cc1OC
Solution: false

Exercise: Also CC(C)(C)n1cnc2cc(NCc3cccs3)ccc21 , if possible.
Solution: true

* * *

# test-target: human ether-à-go-go-related gene (hERG) potassium channel (human);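 also: peak tail current of the secondary pulse compared with the same well before compound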
# test-method-notes: primary screen, population patch clamp on CHO cells stably expressing hERG; higher = less effect of the substance
About 14,000 (4.5%) of roughly 310,000 compounds showed an effect of 50% or more. Effects have a minus sign here. The sample holds strong results, similar compounds and a random draw of the others, so the mix is not that of the screen.
property-label: hERG current change (%, negative = inhibition) at 10uM (%)
Give the value, in units of %, as a plain number.

Examples from the recorded data:
1. CCN(CC)CCCN(C(=O)c1ccc(Br)cc1)c1nc(-c2ccc(OC)cc2)cs1.Cl    -73.2
2. CCNc1nc(NCC)nc(OCC(=O)O)n1    7.6
3. O=C(c1cccc(S(=O)(=O)N2CCOCC2)c1)N(Cc1nnc(-c2ccccc2Cl)o1)C1CC1    -24.9
4. COc1ccc(Nc2nc(NC(C)(C)C)nc(N3CCOCC3)n2)c(OC)c1    -25.3
5. CCOc1ccc(/C=N\NC(=O)c2c(C)nc3cc(C)ccn23)cc1    -2.47

Exercise: Recorded hERG current change (%, negative = inhibition) at 10uM of Cc1nc2ccccn2c1C(=O)N/N=C/c1ccc([N+](=O)[O-])cc1 , please.
Solution: 2.88

Exercise: Now this one: CCCN(Cc1nnc(-c2ccccc2Cl)o1)C(=O)c1cccc(S(=O)(=O)N2CCOCC2)c1
Solution: -6.05

* * *

# test-target: human ether-à-go-go-related gene (hERG) potassium channel (human);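 also: peak tail current of the secondary pulse compared with the same well before compound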
# test-method-notes: primary screen, population patch clamp on CHO cells stably expressing hERG; higher = less effect of the substance
The whole screen tested about 310,000 compounds, of which about 14,000 (4.5%) showed an effect of 50% or more. The effect is printed as a negative number. This excerpt belongs to a sample that is enriched for strong results.
Decide by hERG current change (%, negative = inhibition) at 10uM: equal to or exceeding -10% means true (1), less means false (0).

Previously resolved entries follow.
1) COc1ccccc1-c1cc(C(=O)Nc2cc(C)nn2-c2ccccc2)no1    true (1)
2) C[C@@H](C(=O)NCc1ccc(S(C)(=O)=O)cc1)[C@H]1C[C@]1(C)[C@H](NC(=O)OCc1ccccc1)c1ccccc1    false (0)
3) O=C(O)c1cc([N+](=O)[O-])ccc1N1CCC(Cc2ccccc2)CC1    true (1)

Exercise: For this compound, is measured hERG current change (%, negative = inhibition) at 10uM -10% or higher? C[C@@H](C(=O)NCc1ccc(S(C)(=O)=O)cc1)[C@@H]1C[C@@]1(C)[C@@H](NC(=O)OCc1ccccc1)c1ccccc1
Solution: false (0)

Exercise: Likewise for FC(F)(F)c1cccc(OCCN2CCN(Cc3ccccc3)CC2)c1.O=C(O)C(=O)O ?
Solution: false (0)

Exercise: Next: NC(=O)C1CCN(C(=O)CCSCc2ccc(Cl)c(Cl)c2)CC1
Solution: false (0)

Exercise: What do you have for N/C(=N\[N+](=O)[O-])N1CCN(C(=O)c2ccccc2)CC1 ?
Solution: true (1)

Exercise: Let us now turn to Cc1ccc(C(=O)COC(=O)CCC(=O)NC2CCCCC2)cc1C
Solution: true (1)

Exercise: Next compound up: O=C(CC(c1ccccc1)c1cc(Cl)ccc1O)N1CCOCC1 (stereo not drawn)
Solution: false (0)

* * *

Reported hERG current change (%, negative = inhibition) at 10uM by item:
# test-target: human ether-à-go-go-related gene (hERG) potassium channel (human, UniProt Q12809);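 also: peak tail current of the secondary pulse compared with the same well before compound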
# test-method-notes: primary screen, population patch clamp on CHO cells stably expressing hERG; higher = less effect of the substance
Screen size: about 310,000 compounds; about 14,000 (4.5%) showed an effect of 50% or more. The effect is printed as a negative number. Only a selection was taken, and strong results are over-represented in it overall.
Quick reminder: number only, in %, skip the unit.

Record excerpt, results attached:
1) Cc1c(OCC(=O)NCCCn2ccnc2)ccc2c3c(c(=O)oc12)CCCC3    -48.2
2) COC(=O)c1ccc(NC(=O)C[n+]2ccccc2)cc1.[Cl-]    11.9
3) COc1ccc(S(=O)(=O)Cc2ccc(C(=O)NCCCN(C)c3ccccc3)o2)cc1    -59.4

Exercise: # query: hERG current change (%, negative = inhibition) at 10uM of entry CN1C(=O)N2CN(C3CCCCC3)CN3C(=O)N(C)C1C23 (stereo not shown)
Solution: 9.88
